target: Protein farnesyltransferase (Rattus norvegicus, UniProt Q02293+Q04631); assay: In vitro inhibition of rat farnesyltransferase.
recorded_metric: IC50 (nM)

[
  {
    "compound": "O=C(CN(Cc1ccc(OCc2ccccc2)cc1)C(=O)[C@H](Cc1c[nH]cn1)NC(=O)OCc1ccccc1)NCC1(c2ccccc2)CCC1",
    "tested_system": "Protein farnesyltransferase (Rattus norvegicus, UniProt Q02293+Q04631)",
    "result": 6
  },
  {
    "compound": "O=C(CN(Cc1ccc(OCc2ccccc2)cc1)C(=O)[C@H](Cc1c[nH]cn1)NC(=O)OCc1ccccc1)NCCc1ccccc1",
    "tested_system": "Protein farnesyltransferase (Rattus norvegicus, UniProt Q02293+Q04631)",
    "result": 62
  }
]

[a] C[C@H](CNC(=O)CN(Cc1ccc(OCc2ccccc2)cc1)C(=O)[C@H](Cc1c[nH]cn1)NC(=O)OCc1ccccc1)c1ccccc1
[b] CC(CNC(=O)CN(Cc1ccc(OCc2ccccc2)cc1)C(=O)[C@H](Cc1c[nH]cn1)NC(=O)OCc1ccccc1)c1ccccc1 (stereo not given in full)
[c] C[C@H](Cc1ccccc1)NC(=O)CN(Cc1ccc(OCc2ccccc2)cc1)C(=O)[C@H](Cc1c[nH]cn1)NC(=O)OCc1ccccc1
Task: List by increasing IC50. Use the labels to give the ranking in the order requested.
Result: c, a, b
(c: 3 nM, a: 5 nM, b: 8 nM)

[A] CC(C)(CNC(=O)CN(Cc1ccc(OCc2ccccc2)cc1)C(=O)[C@H](Cc1c[nH]cn1)NC(=O)OCc1ccccc1)c1ccccc1
[B] O=C(CN(Cc1ccc(OCc2ccccc2)cc1)C(=O)[C@H](Cc1c[nH]cn1)NC(=O)OCc1ccccc1)NCC1(c2ccccc2)CC1
Task: Select the item with the higher value of IC50 from the options A and B listed. State the label of the item chosen.
Result: B
(B: 7 nM, A: 4 nM)

[a] C[C@@H](CNC(=O)CN(Cc1ccc(OCc2ccccc2)cc1)C(=O)[C@H](Cc1c[nH]cn1)NC(=O)OCc1ccccc1)c1ccccc1
[b] N#CC(CNC(=O)CN(Cc1ccc(OCc2ccccc2)cc1)C(=O)[C@H](Cc1c[nH]cn1)NC(=O)OCc1ccccc1)c1ccccc1 (stereo not given in full)
[c] CC(C)(Cc1ccccc1)NC(=O)CN(Cc1ccc(OCc2ccccc2)cc1)C(=O)[C@H](Cc1c[nH]cn1)NC(=O)OCc1ccccc1
[d] C[C@@H](Cc1ccccc1)NC(=O)CN(Cc1ccc(OCc2ccccc2)cc1)C(=O)[C@H](Cc1c[nH]cn1)NC(=O)OCc1ccccc1
[e] CCC(CNC(=O)CN(Cc1ccc(OCc2ccccc2)cc1)C(=O)[C@H](Cc1c[nH]cn1)NC(=O)OCc1ccccc1)c1ccccc1 (stereo not given in full)
Task: # sort list by recorded IC50, greatest to least Use the labels to give the ranking in the order requested.
Result: c, d, a, e, b

[A] O=C(CN(Cc1ccc(OCc2ccccc2)cc1)C(=O)[C@H](Cc1c[nH]cn1)NC(=O)OCc1ccccc1)NCCOCc1ccccc1
[B] CCCC(CNC(=O)CN(Cc1ccc(OCc2ccccc2)cc1)C(=O)[C@H](Cc1c[nH]cn1)NC(=O)OCc1ccccc1)c1ccccc1 (stereo not given in full)
[C] O=C(CN(Cc1ccc(OCc2ccccc2)cc1)C(=O)[C@H](Cc1c[nH]cn1)NC(=O)OCc1ccccc1)NCC1(c2ccccc2)CCCC1
Task: List by increasing IC50. Use the labels to give the ranking in the order requested.
Result: C, B, A
